- Tested on: U251 CNS
- test: NCI tumour cell line growth inhibition, 48 h
testReadout: TGI

INSERT INTO assay_data (molecule, testedsystem, result) VALUES
  ('O=C(Nc1ccc(Cl)cc1)/C(Cc1cccc[n+]1[O-])=N\Nc1ccc([N+](=O)[O-])cc1[N+](=O)[O-]', 'U251 CNS', '> 100 µM'),
  ('[N-]=[N+]=Nc1c([N+](=O)[O-])c(Cl)nc2ccccc12', 'U251 CNS', '12.4 µM'),
  ('Cc1ccccc1N=Nc1c(O)[nH]c2ccccc12', 'U251 CNS', '> 100 µM'),
  ('O=C(O)C#CCO', 'U251 CNS', '> 100 µM'),
  ('CCc1c(Cl)nc(Cl)nc1Cl', 'U251 CNS', '0.92 µM'),
  ('O=C(O)c1cc(=O)[nH]c(=S)[nH]1', 'U251 CNS', '> 100 µM'),
  ('CC1(C)CCc2cc3c(-c4ccccc4)cc(=O)oc3cc2O1', 'U251 CNS', '> 100 µM'),
  ('C[C@H]1CC[C@@H]2[C@@H](C)[C@H]3[C@H](C[C@H]4[C@@H]5CC=C6C[C@@H](O)CC[C@]6(C)[C@H]5C[C@H](O)[C@]34C)N2C1', 'U251 CNS', '> 100 µM'),
  ('O=C(/C=C(\Nc1ccccc1O)c1ccccc1)C(=O)NC12CC3CC(CC(C3)C1)C2', 'U251 CNS', '> 10 µM'),
  ('COc1cc(C(C)c2cc3c(cc2OCCCCOc2cc4c(cc2C(C)c2cc(OC)c(OC)c(OC)c2)OCO4)OCO3)cc(OC)c1OC (stereo not given)', 'U251 CNS', '> 100 µM');
